# Test Target: CYP2D6 (Homo sapiens)
# Sequence (P10635 whole entry): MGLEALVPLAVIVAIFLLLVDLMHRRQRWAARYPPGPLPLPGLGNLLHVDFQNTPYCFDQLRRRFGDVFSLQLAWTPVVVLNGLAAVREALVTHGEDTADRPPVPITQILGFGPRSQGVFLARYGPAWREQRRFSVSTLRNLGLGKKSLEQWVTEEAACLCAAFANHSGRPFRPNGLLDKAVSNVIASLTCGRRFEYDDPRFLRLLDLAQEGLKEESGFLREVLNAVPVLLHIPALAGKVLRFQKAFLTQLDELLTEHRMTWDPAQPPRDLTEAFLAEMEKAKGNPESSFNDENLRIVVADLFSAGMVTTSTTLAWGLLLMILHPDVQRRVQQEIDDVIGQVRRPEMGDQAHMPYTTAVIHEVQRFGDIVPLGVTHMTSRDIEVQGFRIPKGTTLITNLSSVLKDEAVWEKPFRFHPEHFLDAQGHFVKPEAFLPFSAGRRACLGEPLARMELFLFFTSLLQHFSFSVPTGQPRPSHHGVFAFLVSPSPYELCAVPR
# Protocol Description: Inhibition of hepatic CYP2D6 expressed in insect microsomes at 1 uM
# Format: ADME, Microsome
Readout: inhibition at 1 µM (%)

(A) CCC(c1ccc(-c2ccc(F)cc2)cc1)n1ccnc1 (configuration not stated)
(B) Fc1ccc(-c2ccc(C(CCCl)n3ccnc3)cc2)cc1 (configuration not stated)
Thinking about recorded inhibition at 1 µM values, which is higher, A or B ? Lab note: record the label of whichever item you select.
A
(A: 54%, B: 32%)

---

# Protocol Description: AUC (0 to infinity) in Wistar rat at 50 mg/kg, po
# Assay type: ADME, organism-based
# Parameters: time infinity, dose 50 mg/kg, route oral
# Test Parameters: plasma
Readout: AUC(0-inf) (ng·h/mL)
A number alone suffices; assume ng·h/mL.

Dear colleague, I am looking for the recorded AUC(0-inf) of the following compound: CCC(c1ccc(-c2ccc(F)cc2)cc1)n1ccnc1 (stereo unspecified)
70700
